System: PPARg:RXRa IVT, anti-PPARg (NR concentration 270 nM, RXRa partner concentration 90 nM)
Test: PBM binding z-score (relative to random genomic background probes); higher = stronger binding; sequences stand for … in GC…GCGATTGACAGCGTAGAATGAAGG
RECORDED_ENDPOINT: PBM binding z-score
// no unit string in output, number only

Reference set (5 entries):
> print(dat)
                        sequence.code                                 tested.on  observed
1  CCTACTGGGTCAAAAAGGTCATTGATGCCGATAA  PPARg:RXRa IVT, anti-PPARg (NR concentration 270 nM, RXRa partner concentration 90 nM)      6.85
2  CGTCCAAGGCCAAGGTCAGTGAAAGAGACTCGAA  PPARg:RXRa IVT, anti-PPARg (NR concentration 270 nM, RXRa partner concentration 90 nM)     0.991
3  CTCGAAAGGTCGGTTCAGGTGAGTATACGGATAA  PPARg:RXRa IVT, anti-PPARg (NR concentration 270 nM, RXRa partner concentration 90 nM)     0.896
4  TCATATAGGTAAAAGGGGAAAGTCGGTGTGGTAA  PPARg:RXRa IVT, anti-PPARg (NR concentration 270 nM, RXRa partner concentration 90 nM)      3.69
5  GGAACGAGGGCATTCGAGTTGATAACATGGCGAT  PPARg:RXRa IVT, anti-PPARg (NR concentration 270 nM, RXRa partner concentration 90 nM)       2.1

Looking up CCTTACGTGTCACTGACAGGTTATAGCATTTGGA , I see its PBM binding z-score listed as 1.32

Looking up ACTAGTTGGCCAGCTGAGGTCACACACAATTCGG , I see its PBM binding z-score listed as 1.85

Looking up TAGCATAGGTCATTCAGGGGCCAGTATAGAAAGC , I see its PBM binding z-score listed as 2.08

Looking up ACTATTAGTTGACTTCGGGCAACCGATACGACGC , I see its PBM binding z-score listed as 0.38

Looking up CAAACTAGGTCAAAGTCAAAGTCGGTTTGTGCCA , I see its PBM binding z-score listed as 8.78

Looking up CCTACTGGGCCATTCAGAAGTCATTGATCATATG , I see its PBM binding z-score listed as 3.36

Looking up GGAACGAGGGCATTCGTGTTGATAGCATGGCGAT , I see its PBM binding z-score listed as 2.25

====

System: LXRa:RXRa (NR concentration 270 nM, RXRa partner concentration 90 nM)
Assay: PBM binding z-score (relative to random genomic background probes); higher = stronger binding; sequences stand for … in GC…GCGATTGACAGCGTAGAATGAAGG
RECORDED_ENDPOINT: PBM binding z-score
// no unit string in output, number only

Reference set (8 entries):
> print(dat)
                        sequence.code  observed
1  ATATGTAGGTTAAGGGTCATTGAGGTTGGTTCGC      4.71
2  CCAGATAGGTGAGAAGGTAACTCAGCCTCGATTA     0.168
3  TGTCGGAGGACACGAAAGGTCAGAGCTCGACATC      3.96
4  GATACAGGGTCAAGGCCAGAGAACGCGTATTGAT      4.32
5  GCTGCTAGGTCAACTGATGCTCAGCTAAAGCTCG      2.63
6  ACTAGCAGCCCAAGGGTCACTCAAGATTAGTCCG      2.63
7  TCATATAGGTAAATCCTAGGTGAAAGTCCGATCT      0.69
8  CGAACTAGGTCAGAAGAGGACAGTGAAGGATGAT      1.24

Looking up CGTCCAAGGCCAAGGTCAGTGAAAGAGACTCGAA , I see its PBM binding z-score listed as 1.15

Looking up GCAGACAGGTGAAACGCAGGTAACTCGGGGTGGC , I see its PBM binding z-score listed as 0.49

Looking up CTCGAAAGCTCGGTTGAGGTGAGTATACGGATAA , I see its PBM binding z-score listed as -0.554

Looking up GCGACTGGGGCATTAGCAGGTTACCATAACTTAA , I see its PBM binding z-score listed as 0.0464

Origin of measurements: the supplement of paper PMC6555819
